Molecular target: recombinant human mu (MOR) opioid receptor (Homo sapiens)
Construct: expressed in transfected cells; host or cells: CHO-K1 cells (membranes)
Sequence (P35372 whole entry): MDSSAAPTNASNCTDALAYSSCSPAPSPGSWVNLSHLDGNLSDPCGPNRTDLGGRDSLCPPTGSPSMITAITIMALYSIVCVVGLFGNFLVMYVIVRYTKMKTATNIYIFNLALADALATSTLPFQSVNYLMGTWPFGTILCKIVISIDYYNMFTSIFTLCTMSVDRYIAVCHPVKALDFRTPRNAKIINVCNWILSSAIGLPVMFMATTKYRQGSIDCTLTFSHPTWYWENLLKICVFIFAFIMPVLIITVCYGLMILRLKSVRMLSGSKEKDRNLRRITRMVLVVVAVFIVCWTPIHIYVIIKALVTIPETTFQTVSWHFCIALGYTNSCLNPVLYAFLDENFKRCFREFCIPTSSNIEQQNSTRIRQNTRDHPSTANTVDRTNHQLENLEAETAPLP
Test: Competitive radioligand binding at MOR ([3H]naloxone), single concentration, CHO-K1 membranes
Conditions: 10 μM test compound; percent inhibition of specific [3H]naloxone (4 nM) binding; read-out: Mu Opioid Receptor Mu Receptor Inhibition % inhib @ 10 uM
Documented inhibition at 10 µM across a set of compounds
Express the result in % but write the number alone.

- compound: "CC(O)CS(=O)(=O)Nc1cccc([C@@H](CN2CCCC2)N(C)C(=O)C(c2ccccc2)c2ccccc2)c1 (stereo partly shown) [Example 12]"
  unit-text: "%"
  inhibition at 10 µM: 47

Input CN(C(=O)Cc1ccc(Cl)c(Cl)c1)[C@H](CN1CCCC1)c1cccc(NS(=O)(=O)c2cn(C)nc2C(F)(F)F)c1 [Example 5] . Output inhibition at 10 µM: 97

Input CN(C(=O)Cc1ccc(F)cc1F)[C@H](CN1CC[C@H](OCCO)C1)c1ccc(OCCO)cc1 [Example 20] . Output inhibition at 10 µM: -29.4

Input CN(C(=O)Cc1ccc(Cl)c(Cl)c1)[C@H](CN1CCCC1)c1cccc(NS(=O)(=O)c2cccnc2Cl)c1 [Example 4] . Output inhibition at 10 µM: 91.8

Input CN([C@H](CN1CC[C@H](O)C1)c1ccc(OCCO)cc1)S(=O)(=O)Cc1ccc(Cl)c(Cl)c1 [Example 22] . Output inhibition at 10 µM: -10.3

Input COCCN(C)S(=O)(=O)Nc1cccc([C@@H](CN2CCCC2)N(C)C(=O)Cc2ccc(Cl)c(Cl)c2)c1 [Example 7] . Output inhibition at 10 µM: 99.9

Input COCCN(CCOC)S(=O)(=O)Nc1cccc([C@@H](CN2CCCC2)N(C)C(=O)Cc2ccc(Cl)c(Cl)c2)c1 [Example 9] . Output inhibition at 10 µM: 101
